# System: HeLa Kyoto
# run.description: melting temperature (median over replicates), in situ; higher = more thermally stable
# recorded.conditions: cell cycle stage: G1/S
property.measured: melting temperature (°C)
Please reply with the bare figure in °C and do not write the unit itself.

// worked examples, melting temperature included
MALDFLAGCAGGVAGVLVGHPFDTVKVRLQVQSVEKPQYRGTLHCFKSIIKQESVLGLYKGLGSPLMGLTFINALVFGVQGNTLRALGHDSPLNQFLAGAAAGAIQCVICCPMELAKTRLQLQDAGPARTYKGSLDCLAQIYGHEGLRGVNRGMVSTLLRETPSFGVYFLTYDALTRALGCEPGDRLLVPKLLLAGGTSGIVSWLSTYPVDVVKSRLQADGLRGAPRYRGILDCVHQSYRAEGWRVFTRGLASTLLRAFPVNAATFATVTVVLTYARGEEAGPEGEAVPAAPAGPALAQPSSL [SLC25A29]
53.2
MADPWQECMDYAVTLARQAGEVVCEAIKNEMNVMLKSSPVDLVTATDQKVEKMLISSIKEKYPSHSFIGEESVAAGEKSILTDNPTWIIDPIDGTTNFVHRFPFVAVSIGFAVNKKIEFGVVYSCVEGKMYTARKGKGAFCNGQKLQVSQQEDITKSLLVTELGSSRTPETVRMVLSNMEKLFCIPVHGIRSVGTAAVNMCLVATGGADAYYEMGIHCWDVAGAGIIVTEAGGVLMDVTGGPFDLMSRRVIAANNRILAERIAKEIQVIPLQRDDED [IMPA1]
59.9
MFISLWEFFYGHFFRFWMKWLLRQMTGKCELQRIFDTYVGAQRTHRIENSLTYSKNKVLQKATHVVQSEVDKYVDDIMKEKNINPEKDASFKICMKMCLLQITGYKQLYLDVESVRKRPYDSDNLQHEELLMKLWNLLMPTKKLNARISKQWAEIGFQGDDPKTDFRGMGILGLINLVYFSENYTSEAHQILSRSNHPKLGYSYAIVGINLTEMAYSLLKSEALKFHLYNLVPGIPTMEHFHQFYCYLVYEFDKFWFEEEPESIMYFNLYREKFHEKIKGLLLDCNVALTLKV [ELMOD2]
51.5

Please find the next sequence below.
Recorded result, MLSSCVRPVPTTVRFVDSLICNSSRSFMDLKALLSSLNDFASLSFAESWDNVGLLVEPSPPHTVNTLFLTNDLTEEVMEEVLQKKADLILSYHPPIFRPMKRITWNTWKERLVIRALENRVGIYSPHTAYDAAPQGVNNWLAKGLGACTSRPIHPSKAPNYPTEGNHRVEFNVNYTQDLDKVMSAVKGIDGVSVTSFSARTGNEEQTRINLNCTQKALMQVVDFLSRNKQLYQKTEILSLEKPLLLHTGMGRLCTLDESVSLATMIDRIKRHLKLSHIRLALGVGRTLESQVKVVALCAGSGSSVLQGVEADLYLTGEMSHHDTLDAASQGINVILCEHSNTERGFLSDLRDMLDSHLENKINIILSETDRDPLQVV [NIF3L1] , melting temperature: 60.8

----------
# Test system: HeLa Kyoto
# run.description: thermal stability score vs G1/S (z-score of summed log2 fold changes over temperatures); higher = more thermally stable than in G1/S
# recorded.conditions: cell cycle stage: mitosis
property.measured: thermal stability score
Keep the answer to the number alone.

# count of solved cases: 2
MASMAAAIAASRSAVMSGNRPLDDRERKRFTYFSSLSPMARKIMQDKEKIREKYGPEWARLPPAQQDEIIDRCLVGPRAPAPRDPGDSEELTRFPGLRGPTGQKVVRFGDEDLTWQDEHSAPFSWETKSQMEFSISALSIQEPSNGTAASEPRPLSKASQGSQALKSSQGSRSSSLDALGPTRKEEEASFWKINAERSRGEGPEAEFQSLTPSQIKSMEKGEKVLPPCYRQEPAPKDREAKVERPSTLRQEQRPLPNVSTERERPQPVQAFSSALHEAAPSQLEGKLPSPDVRQDDGEDTLFSEPKFAQVSSSNVVLKTGFDFLDNW [C1ORF198]
-1
MSSGIHVALVTGGNKGIGLAIVRDLCRLFSGDVVLTARDVTRGQAAVQQLQAEGLSPRFHQLDIDDLQSIRALRDFLRKEYGGLDVLVNNAGIAFKVADPTPFHIQAEVTMKTNFFGTRDVCTELLPLIKPQGRVVNVSSIMSVRALKSCSPELQQKFRSETITEEELVGLMNKFVEDTKKGVHQKEGWPSSAYGVTKIGVTVLSRIHARKLSEQRKGDKILLNACCPGWVRTDMAGPKATKSPEEGAETPVYLALLPPDAEGPHGQFVSEKRVEQW [CBR1]
-0.874

Now look at this entry.
Lab book: thermal stability score of MDDREDLVYQAKLAEQAERYDEMVESMKKVAGMDVELTVEERNLLSVAYKNVIGARRASWRIISSIEQKEENKGGEDKLKMIREYRQMVETELKLICCDILDVLDKHLIPAANTGESKVFYYKMKGDYHRYLAEFATGNDRKEAAENSLVAYKAASDIAMTELPPTHPIRLGLALNFSVFYYEILNSPDRACRLAKAAFDDAIAELDTLSEESYKDSTLIMQLLRDNLTLWTSDMQGDGEEQNKEALQDVEDENQ [YWHAE] noted as -2.71

These entries and their values trace back to the supplement of paper PMC5998384.
